The reported numbers originate from PubChem BioAssay (NCI).

system: 786-0 renal; experiment: NCI-60 one-dose screen, 48 h; details: 10 µM unless noted
About 83,000 compounds went through this panel and 20% of them were active in at least one assay; those are over-represented in the sample as a whole. The source made the active and inactive calls. Rule for the calls: active = growth percent below 10; inactive = the rest.
# valid calls are active, inactive; nothing else

compound | class name
COc1ccc(Oc2[nH]n(C3=Nc4ccccc4Sc4ccccc43)c(=O)c2C#N)cc1 | inactive
COc1ccc(CN2C(=O)/C(=C\C(=O)c3ccc(OCCN4CCCC4)cc3)c3ccccc32)cc1 | inactive

Status in this test for `Clc1ccc(I)c2ccccc12` ?
inactive

Per the assay record, what outcome was assigned to `[2H]c1nc(=Nc2cc(NC(=O)C=C)c(N(C)CCN(C)C)cc2OC)[nH]c(-c2cn(C([2H])([2H])[2H])c3ccccc23)c1[2H]` ?
inactive

Dear colleague, could you share the recorded outcome for `Cc1nc(N)sc1C(=O)NCCO` when you have a moment?
inactive

Hey, what did the test say about COc1ccc(C(=O)N2N=C(c3ccc(Br)cc3)CC2c2cn(-c3ccccc3)nc2-c2ccccc2)cc1 (stereo not given) ?
inactive

Returns: the outcome recorded for `Cc1ncc(C(=O)Nc2ccc(CN3CCN(C)CC3)c(C(F)(F)F)c2)cc1C#Cc1c(N)ncc2ccc(F)cc12` in this assay.
active

Test call, this compound: CCC(C)[C@H](NC(=O)Nc1cc(C(F)(F)F)cc(C(F)(F)F)c1)C(=O)N[C@@H](Cc1cn(C)cn1)C(=O)OC (stereo not given in full)
active

Check the results log: what was the call for `CC(=O)OCC(=O)[C@@]1(O)[C@H](C)C[C@H]2[C@@H]3C=C(C)C4=Cc5c(cnn5-c5ccc(F)cc5)C[C@]4(C)[C@H]3[C@@H](O)C[C@@]21C` ?
active

Write down the call the test reported for this compound. Item: `O=c1[nH]c(=S)[nH]c(O)c1/C=C1\C=Nc2ccccc21`
inactive

Recorded test outcome, item `CCCC(CCC)Oc1ccc(CCCC2=C(O)c3ccccc3C(=O)C2=O)cc1`
inactive

Could you please tell me the result logged for `COc1ccc(/C(=C(\c2ccccc2)[N+](=O)[O-])c2ccc(OCCN3CCCC3)cc2)cc1` in this assay?
inactive

Test call, this compound: `O=C1CCNC1`
inactive

Test call for this compound, please: `O=C(CCl)NC1c2ccccc2Oc2ccccc21`
inactive

Per the assay record, what outcome was assigned to `COc1ccc(/C=N/c2cc(C(C)(C)C)nn2-c2ccccc2)cc1` ?
inactive

Look up the recorded call for `CCN(CC)c1ccc2nc3ccc(N=Nc4ccc(O)cc4)cc3[n+](-c3ccccc3)c2c1` in this test.
inactive

Test call for this compound, please: `CCCCCCN(CCCCCC)CCC(=O)Nc1ccc(S(=O)(=O)c2ccc(NC(=O)CCN(CCCCCC)CCCCCC)cc2)cc1`
inactive

Could you kindly confirm the outcome this assay logged for `CC(=O)N1CCN(CCNC(=O)n2cc(-c3ccncc3)c(-c3cc(O)cc(Cl)c3)n2)CC1` ?
inactive

Kindly provide the recorded test outcome for the following compound: O=c1c2c(c3ccccc3n1-c1ccccc1)NC(=S)NC2c1ccccc1 (stereo not given)
inactive

Status in this test for O=C(O)CS(=O)c1ccc(Cl)cc1 (stereo not given) ?
inactive
